The following variants are shown together with reported self-cleavage values.
B1: LINE1-full (parent)
chain: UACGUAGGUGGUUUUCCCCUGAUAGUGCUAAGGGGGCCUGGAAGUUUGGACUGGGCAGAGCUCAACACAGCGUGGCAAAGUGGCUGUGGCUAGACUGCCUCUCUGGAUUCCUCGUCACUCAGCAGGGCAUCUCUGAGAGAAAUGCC

variants of: B1; assay: self-cleavage, relative activity (ratio to wild type); higher = more cleavage; in vitro, sequencing; the parent is a self-cleaving ribozyme
Keep the answer to the number alone.

A selection of reference data follows.
[
  {
    "VARIANT STRING": "U115C A136G",
    "READOUT TYPE": "self-cleavage",
    "OBSERVED MEASUREMENT": 1.83
  },
  {
    "VARIANT STRING": "A94G G105A",
    "READOUT TYPE": "self-cleavage",
    "OBSERVED MEASUREMENT": 0.18
  }
]

Quick one: give measured self-cleavage for U5C U20C
1.09

Quick one: give measured self-cleavage for C71U C120U
2.76

Quick one: give measured self-cleavage for C28U A107G
0.88

Quick one: give measured self-cleavage for G74A U115A
1.45

Quick one: give measured self-cleavage for U9A C38A
1.26

Quick one: give measured self-cleavage for U39A A69G
0.55

Quick one: give measured self-cleavage for U45C U91G
0

Quick one: give measured self-cleavage for U52C A136U
0.81
